These entries and their values trace back to the kinase profiling compilation of Christmann-Franck et al. (2016).

Measured kinase still bound, per cent of control, listed per entry.
Target Under Test: RAF1 (human)
Assay Info: KINOMEscan competition binding
Protocol Conditions: compound 10.0 µM
Just the number in %, nothing appended.

Field: example entries. Status: answers known.
1. CCN1CCN(C(=O)Cc2ccc(Nc3ncc(F)c(Nc4ccc(C(=O)Nc5ccccc5Cl)cc4)n3)cc2)CC1
81
2. C=CC(=O)Nc1cc(-n2c(=O)ccc3cnc4ccc(-c5cn[nH]c5)cc4c32)ccc1C
100
3. O=C(Nc1cccc(Nc2ncc(Br)c(NCCc3cnc[nH]3)n2)c1)N1CCCC1
100
4. C[C@@H](Oc1cc(-c2cnn(C3CCNCC3)c2)cnc1N)c1c(Cl)ccc(F)c1Cl
93
5. CN(C)C/C=C/C(=O)Nc1ccc(C(=O)Nc2cccc(Nc3nccc(-c4cccnc4)n3)c2)cc1
100
6. CNC(=O)c1cc(Oc2ccc(NC(=O)Nc3ccc(Cl)c(C(F)(F)F)c3)cc2)ccn1
0.05
7. N#CCNC(=O)c1ccc(-c2ccnc(Nc3ccc(N4CCOCC4)cc3)n2)cc1
100
8. CNC(=O)c1ccc(Nc2cc(Nc3ccccc3S(=O)(=O)C(C)C)c3cc[nH]c3n2)nc1
100

Exam item: Record request: kinase still bound, per cent of control value, item O=C1NC(=O)/C(=C/c2ccc3nccc(-c4ccncc4)c3c2)S1
Marked response: 47

###

Target Under Test: DMPK (human) (UniProt Q09013)
Sequence (Q09013 whole entry, looked up): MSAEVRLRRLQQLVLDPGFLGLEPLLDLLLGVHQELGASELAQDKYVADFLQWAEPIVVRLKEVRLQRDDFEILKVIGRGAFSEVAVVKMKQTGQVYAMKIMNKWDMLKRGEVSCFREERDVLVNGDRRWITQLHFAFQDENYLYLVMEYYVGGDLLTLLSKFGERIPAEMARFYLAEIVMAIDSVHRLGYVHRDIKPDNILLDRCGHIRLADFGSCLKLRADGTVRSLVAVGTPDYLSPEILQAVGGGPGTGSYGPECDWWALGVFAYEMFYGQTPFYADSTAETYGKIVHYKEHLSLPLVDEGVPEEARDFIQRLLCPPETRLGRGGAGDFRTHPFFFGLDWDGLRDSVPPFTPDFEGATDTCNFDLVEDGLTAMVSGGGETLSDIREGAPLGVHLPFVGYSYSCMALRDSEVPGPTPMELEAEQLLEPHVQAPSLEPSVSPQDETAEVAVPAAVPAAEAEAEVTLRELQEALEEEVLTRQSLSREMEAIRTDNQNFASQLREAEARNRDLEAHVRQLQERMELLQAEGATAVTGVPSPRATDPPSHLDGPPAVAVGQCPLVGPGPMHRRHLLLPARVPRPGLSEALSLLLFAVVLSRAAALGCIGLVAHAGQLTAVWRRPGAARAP
Assay Info: KINOMEscan competition binding
Protocol Conditions: compound 10.0 µM
Metric: kinase still bound, per cent of control

Field: example entries. Status: answers known.
1. O=c1cc(N2CCOCC2)oc2c(-c3cccc4c3sc3ccccc34)cccc12
89%
2. N#CCNC(=O)c1ccc(-c2ccnc(Nc3ccc(N4CCOCC4)cc3)n2)cc1
37%

Exam item: Record request: kinase still bound, per cent of control value, item O=C1NC(=O)/C(=C/c2ccc3nccc(-c4ccncc4)c3c2)S1
Marked response: 2.9%

###

Tested on: RET (human), P07949 [M918T]
Sequence (P07949 whole entry M918T, looked up): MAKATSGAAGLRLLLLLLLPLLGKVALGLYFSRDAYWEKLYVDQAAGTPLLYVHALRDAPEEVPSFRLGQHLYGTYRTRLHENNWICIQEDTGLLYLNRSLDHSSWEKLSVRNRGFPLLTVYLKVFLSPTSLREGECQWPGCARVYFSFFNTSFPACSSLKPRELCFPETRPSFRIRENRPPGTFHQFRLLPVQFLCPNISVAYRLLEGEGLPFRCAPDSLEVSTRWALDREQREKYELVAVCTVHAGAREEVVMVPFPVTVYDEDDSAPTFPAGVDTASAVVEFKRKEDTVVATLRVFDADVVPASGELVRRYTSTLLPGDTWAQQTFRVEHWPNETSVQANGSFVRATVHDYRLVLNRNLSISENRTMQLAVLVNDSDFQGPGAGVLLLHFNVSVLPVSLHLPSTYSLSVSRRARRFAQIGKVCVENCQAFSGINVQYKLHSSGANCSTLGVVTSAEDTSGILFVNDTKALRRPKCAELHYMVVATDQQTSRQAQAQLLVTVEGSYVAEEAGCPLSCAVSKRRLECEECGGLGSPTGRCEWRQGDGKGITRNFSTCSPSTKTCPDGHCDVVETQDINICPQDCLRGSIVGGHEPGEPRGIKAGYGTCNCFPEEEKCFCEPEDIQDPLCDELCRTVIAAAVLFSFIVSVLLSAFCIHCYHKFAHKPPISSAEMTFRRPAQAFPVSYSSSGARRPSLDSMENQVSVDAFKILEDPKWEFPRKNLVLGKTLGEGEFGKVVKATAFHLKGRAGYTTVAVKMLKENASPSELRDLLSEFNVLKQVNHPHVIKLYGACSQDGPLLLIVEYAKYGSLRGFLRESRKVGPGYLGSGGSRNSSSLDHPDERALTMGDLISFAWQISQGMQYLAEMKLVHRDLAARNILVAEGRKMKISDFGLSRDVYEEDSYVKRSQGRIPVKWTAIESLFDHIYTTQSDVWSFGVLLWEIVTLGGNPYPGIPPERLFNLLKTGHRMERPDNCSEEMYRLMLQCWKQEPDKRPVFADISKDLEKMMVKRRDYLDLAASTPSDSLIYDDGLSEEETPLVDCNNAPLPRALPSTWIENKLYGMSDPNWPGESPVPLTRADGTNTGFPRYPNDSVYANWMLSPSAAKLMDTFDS
Assay Info: KINOMEscan competition binding
Protocol Conditions: compound 10.0 µM
The label is 1 (yes) for kinase still bound, per cent of control below 80% and 0 (no) for kinase still bound, per cent of control equal to or exceeding 80%.

1) CCN(CCO)CCCOc1ccc2c(Nc3cc(CC(=O)Nc4cccc(F)c4)[nH]n3)ncnc2c1
1 (yes)
2) CC[C@@H]1C(=O)N(C)c2cnc(Nc3ccc(C(=O)NC4CCN(C)CC4)cc3OC)nc2N1C1CCCC1
0 (no)
3) CNC(=O)c1cc(Oc2ccc(NC(=O)Nc3ccc(Cl)c(C(F)(F)F)c3)cc2)ccn1
1 (yes)
4) N#Cc1c(NC(=O)c2cccc3ccccc23)sc2c1CCCC2
0 (no)

Exam item: Regarding O=C1NC(=O)/C(=C/c2ccc3nccc(-c4ccncc4)c3c2)S1 , kindly confirm whether its kinase still bound, per cent of control is beneath 80%.
Marked response: 0 (no)

Exam item: Regarding Cc1ccc(C(=O)Nc2cccc(C(F)(F)F)c2)cc1Nc1cncc(C(N)=O)c1 , kindly confirm whether its kinase still bound, per cent of control is beneath 80%.
Marked response: 0 (no)

###

Target Under Test: TAOK3 (human) (UniProt Q9H2K8)
Sequence (Q9H2K8 whole entry, looked up): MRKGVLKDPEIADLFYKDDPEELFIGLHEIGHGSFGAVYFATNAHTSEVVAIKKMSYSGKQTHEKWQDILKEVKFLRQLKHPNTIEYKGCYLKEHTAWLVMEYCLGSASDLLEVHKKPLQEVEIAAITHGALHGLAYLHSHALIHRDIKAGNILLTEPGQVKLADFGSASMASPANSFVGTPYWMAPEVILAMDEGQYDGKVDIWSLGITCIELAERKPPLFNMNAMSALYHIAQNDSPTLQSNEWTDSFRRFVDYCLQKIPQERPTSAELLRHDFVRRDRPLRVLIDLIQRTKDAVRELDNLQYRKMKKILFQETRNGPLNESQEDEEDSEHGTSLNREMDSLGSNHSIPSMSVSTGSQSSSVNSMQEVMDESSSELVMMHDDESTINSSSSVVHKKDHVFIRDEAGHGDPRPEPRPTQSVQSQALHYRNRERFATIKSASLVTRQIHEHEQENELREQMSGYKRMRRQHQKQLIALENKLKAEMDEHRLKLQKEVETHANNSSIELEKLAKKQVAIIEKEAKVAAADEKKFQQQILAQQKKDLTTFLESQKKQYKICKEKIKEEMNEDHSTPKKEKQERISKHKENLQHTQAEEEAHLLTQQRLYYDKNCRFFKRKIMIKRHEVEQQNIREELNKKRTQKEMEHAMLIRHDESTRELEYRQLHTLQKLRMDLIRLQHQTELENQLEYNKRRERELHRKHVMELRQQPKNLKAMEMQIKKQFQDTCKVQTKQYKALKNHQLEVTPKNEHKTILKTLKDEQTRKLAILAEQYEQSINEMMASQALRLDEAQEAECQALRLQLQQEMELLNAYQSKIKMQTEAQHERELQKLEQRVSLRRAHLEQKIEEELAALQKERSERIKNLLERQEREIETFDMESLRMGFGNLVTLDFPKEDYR
Assay Info: KINOMEscan competition binding
Protocol Conditions: compound 10.0 µM
The label is 1.0 for kinase still bound, per cent of control below 40% and 0.0 for kinase still bound, per cent of control equal to or exceeding 40%.

// known answers, use as guide
1) CNC(=O)c1ccc(Nc2cc(Nc3ccccc3S(=O)(=O)C(C)C)c3cc[nH]c3n2)nc1
1.0
2) C[C@@H](Oc1cc(-c2cnn(C3CCNCC3)c2)cnc1N)c1c(Cl)ccc(F)c1Cl
1.0
3) COc1ccc(N(C(=O)Oc2c(C)cccc2C)c2ccnc(Nc3ccc(N4CCN(C)CC4)cc3)n2)c(OC)c1
1.0
4) CS(=O)(=O)N1CCN(Cc2cc3nc(-c4cccc5[nH]ncc45)nc(N4CCOCC4)c3s2)CC1
0.0
5) CCN1CCN(C(=O)Cc2ccc(Nc3ncc(F)c(Nc4ccc(C(=O)Nc5ccccc5Cl)cc4)n3)cc2)CC1
0.0

Exam item: Regarding COc1cc(N2CCN(C)CC2)ccc1Nc1ncc2c(n1)N(C)c1ccccc1C(=O)N2C , kindly confirm whether its kinase still bound, per cent of control is beneath 40%.
Marked response: 1.0

Exam item: Regarding C=CC(=O)Nc1cc(-n2c(=O)ccc3cnc4ccc(-c5cn[nH]c5)cc4c32)ccc1C , kindly confirm whether its kinase still bound, per cent of control is beneath 40%.
Marked response: 0.0

Exam item: Regarding C=CC(=O)Nc1ccc(CN(C(=O)Nc2c(Cl)c(OC)cc(OC)c2Cl)c2cc(Nc3ccc(N4CCN(C)CC4)cc3)ncn2)cc1 , kindly confirm whether its kinase still bound, per cent of control is beneath 40%.
Marked response: 1.0

###

Measured kinase still bound, per cent of control, listed per entry.
Target Under Test: EIF2AK2 (human) (UniProt P19525)
Sequence (P19525 whole entry, looked up): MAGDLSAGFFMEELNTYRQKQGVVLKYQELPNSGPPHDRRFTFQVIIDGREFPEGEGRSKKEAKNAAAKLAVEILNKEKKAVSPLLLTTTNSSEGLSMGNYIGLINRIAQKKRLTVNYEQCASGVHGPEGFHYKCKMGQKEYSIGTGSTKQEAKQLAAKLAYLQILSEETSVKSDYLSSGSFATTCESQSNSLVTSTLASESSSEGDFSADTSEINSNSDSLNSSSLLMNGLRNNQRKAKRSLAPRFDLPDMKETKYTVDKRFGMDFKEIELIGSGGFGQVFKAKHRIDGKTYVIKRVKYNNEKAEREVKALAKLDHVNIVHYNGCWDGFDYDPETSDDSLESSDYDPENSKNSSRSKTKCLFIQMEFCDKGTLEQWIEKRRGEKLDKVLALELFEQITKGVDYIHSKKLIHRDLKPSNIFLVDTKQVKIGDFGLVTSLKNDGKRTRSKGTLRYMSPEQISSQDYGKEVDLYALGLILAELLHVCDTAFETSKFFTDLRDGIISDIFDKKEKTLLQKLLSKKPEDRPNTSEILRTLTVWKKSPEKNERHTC
Assay Info: KINOMEscan competition binding
Protocol Conditions: compound 10.0 µM
Just the number in %, nothing appended.

Field: example entries. Status: answers known.
1) CCN(CC)CCCCNc1ncc2c(n1)N(C)C(=O)N(c1c(Cl)c(OC)cc(OC)c1Cl)C2
100
2) C=CC(=O)Nc1ccc(CN(C(=O)Nc2c(Cl)c(OC)cc(OC)c2Cl)c2cc(Nc3ccc(N4CCN(C)CC4)cc3)ncn2)cc1
100
3) COc1cc2ncnc(-n3nc(-c4ccccn4)nc3N)c2cc1OC
21
4) COc1cc2ncn(-c3cc(OCc4ccccc4C(F)(F)F)c(C(N)=O)s3)c2cc1OC
78
5) COCC(=O)NC/C=C/c1ccc2ncnc(Nc3ccc(Oc4ccc(C)nc4)c(C)c3)c2c1
99
6) CCN1CCN(C(=O)Cc2ccc(Nc3ncc(F)c(Nc4ccc(C(=O)Nc5ccccc5Cl)cc4)n3)cc2)CC1
15
7) COc1cc(N2CCN(C)CC2)ccc1Nc1ncc2c(n1)N(C)c1ccccc1C(=O)N2C
100
8) C[C@@H](Oc1cc(-c2cnn(C3CCNCC3)c2)cnc1N)c1c(Cl)ccc(F)c1Cl
43
9) CN(C)C/C=C/C(=O)Nc1ccc(C(=O)Nc2cccc(Nc3nccc(-c4cccnc4)n3)c2)cc1
50
10) COc1ccc(N(C(=O)Oc2c(C)cccc2C)c2ccnc(Nc3ccc(N4CCN(C)CC4)cc3)n2)c(OC)c1
92

Exam item: Record request: kinase still bound, per cent of control value, item COc1cc(C(=O)N2CCC(N3CCN(C)CC3)CC2)ccc1Nc1ncc2c(n1)N(C)c1ccccc1C(=O)N2C
Marked response: 84

Exam item: Record request: kinase still bound, per cent of control value, item N#CCNC(=O)c1ccc(-c2ccnc(Nc3ccc(N4CCOCC4)cc3)n2)cc1
Marked response: 47

Exam item: Record request: kinase still bound, per cent of control value, item CNC(=O)c1cc(Oc2ccc(NC(=O)Nc3ccc(Cl)c(C(F)(F)F)c3)cc2)ccn1
Marked response: 73

Exam item: Record request: kinase still bound, per cent of control value, item CCN(CC)CCCCNc1ncc2cc(-c3cc(OC)cc(OC)c3)c(NC(=O)NC(C)(C)C)nc2n1
Marked response: 24

Exam item: Record request: kinase still bound, per cent of control value, item CS(=O)(=O)N1CCN(Cc2cc3nc(-c4cccc5[nH]ncc45)nc(N4CCOCC4)c3s2)CC1
Marked response: 100

Exam item: Record request: kinase still bound, per cent of control value, item NC(=O)Nc1cc(-c2cccc(F)c2)sc1C(=O)N[C@@H]1CCCNC1
Marked response: 3.4

Exam item: Record request: kinase still bound, per cent of control value, item Cc1n[nH]c2ccc(-c3cncc(OC[C@@H](N)Cc4c[nH]c5ccccc45)c3)cc12
Marked response: 100

###

Target Under Test: PDGFRA (human) (UniProt P16234)
Sequence (P16234 whole entry, looked up): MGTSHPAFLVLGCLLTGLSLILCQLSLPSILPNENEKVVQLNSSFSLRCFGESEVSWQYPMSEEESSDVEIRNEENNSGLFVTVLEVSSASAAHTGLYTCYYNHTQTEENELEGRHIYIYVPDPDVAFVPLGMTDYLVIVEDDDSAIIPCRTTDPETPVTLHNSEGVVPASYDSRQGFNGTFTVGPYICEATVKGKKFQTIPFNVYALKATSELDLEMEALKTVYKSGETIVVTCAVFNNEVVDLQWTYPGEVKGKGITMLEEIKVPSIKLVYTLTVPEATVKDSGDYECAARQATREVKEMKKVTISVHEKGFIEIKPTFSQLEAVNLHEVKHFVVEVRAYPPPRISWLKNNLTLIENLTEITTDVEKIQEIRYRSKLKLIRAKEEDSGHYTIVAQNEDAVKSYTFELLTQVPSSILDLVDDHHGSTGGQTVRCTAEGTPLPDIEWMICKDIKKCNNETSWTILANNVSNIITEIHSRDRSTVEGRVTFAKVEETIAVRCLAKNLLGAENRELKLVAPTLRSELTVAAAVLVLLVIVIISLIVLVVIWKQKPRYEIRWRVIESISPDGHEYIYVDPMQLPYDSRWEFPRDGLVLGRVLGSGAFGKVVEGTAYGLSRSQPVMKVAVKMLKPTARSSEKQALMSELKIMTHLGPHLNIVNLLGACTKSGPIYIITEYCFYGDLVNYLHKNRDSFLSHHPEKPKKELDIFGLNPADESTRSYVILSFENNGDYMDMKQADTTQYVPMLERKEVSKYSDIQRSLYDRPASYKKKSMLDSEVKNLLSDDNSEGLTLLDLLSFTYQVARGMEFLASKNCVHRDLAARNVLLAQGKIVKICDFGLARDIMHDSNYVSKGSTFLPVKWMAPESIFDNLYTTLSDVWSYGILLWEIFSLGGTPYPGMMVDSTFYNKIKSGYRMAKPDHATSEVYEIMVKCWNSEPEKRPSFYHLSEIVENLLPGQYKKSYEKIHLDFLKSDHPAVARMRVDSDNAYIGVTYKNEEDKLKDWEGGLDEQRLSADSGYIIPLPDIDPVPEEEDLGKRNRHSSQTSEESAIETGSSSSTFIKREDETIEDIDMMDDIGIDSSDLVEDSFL
Assay Info: KINOMEscan competition binding
Protocol Conditions: compound 10.0 µM
The label is Condition met for kinase still bound, per cent of control below 40% and Condition not met for kinase still bound, per cent of control equal to or exceeding 40%.

// known answers, use as guide
1. N#CCNC(=O)c1ccc(-c2ccnc(Nc3ccc(N4CCOCC4)cc3)n2)cc1
Condition not met
2. O=C(Nc1cccc(Nc2ncc(Br)c(NCCc3cnc[nH]3)n2)c1)N1CCCC1
Condition met
3. CNC(=O)c1ccc(Nc2cc(Nc3ccccc3S(=O)(=O)C(C)C)c3cc[nH]c3n2)nc1
Condition not met
4. O=C1NC(=O)/C(=C/c2ccc3nccc(-c4ccncc4)c3c2)S1
Condition not met
5. COc1cc(C(=O)N2CCC(N3CCN(C)CC3)CC2)ccc1Nc1ncc2c(n1)N(C)c1ccccc1C(=O)N2C
Condition not met
6. CNC(=O)c1cc(Oc2ccc(NC(=O)Nc3ccc(Cl)c(C(F)(F)F)c3)cc2)ccn1
Condition met
7. C[C@@H](Oc1cc(-c2cnn(C3CCNCC3)c2)cnc1N)c1c(Cl)ccc(F)c1Cl
Condition not met
8. CCN(CC)CCCCNc1ncc2c(n1)N(C)C(=O)N(c1c(Cl)c(OC)cc(OC)c1Cl)C2
Condition not met

Exam item: Regarding Cc1n[nH]c2ccc(-c3cncc(OC[C@@H](N)Cc4c[nH]c5ccccc45)c3)cc12 , kindly confirm whether its kinase still bound, per cent of control is beneath 40%.
Marked response: Condition not met
